Molecular target: Glycogen synthase kinase-3 beta (Homo sapiens);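 note: reported values are mean percent inhibition of GSK3B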
Conditions: at 1 µM
Entry flag: yes (1) if inhibition reaches 20%; no (0) if it does not.

Field: example entries. Status: answers known.
>>> class_name("COc1ccc(-c2oc3ncnc(N)c3c2-c2ccc(NC(=O)Nc3cc(C(F)(F)F)ccc3F)cc2)cc1")
"no (0)"
>>> class_name("CC(C)COC(=O)c1ccc2c(c1)/C(=C/Nc1ccc(S(N)(=O)=O)cc1)C(=O)N2")
"yes (1)"
>>> class_name("CN(C)CCOc1ccc(-c2nc(-c3ccncc3)c(-c3ccc4c(c3)CC/C4=N\\O)[nH]2)cc1")
"no (0)"
>>> class_name("Cc1ccc2c(-c3ccnc(Nc4ccccc4)n3)c(-c3ccc(F)cc3)nn2n1")
"yes (1)"
>>> class_name("CCn1c(-c2nonc2N)nc2ccccc21")
"no (0)"
>>> class_name("CN1CCC(n2cnc(-c3ccc(F)cc3)c2-c2ccnc(Nc3ccccc3)n2)CC1")
"yes (1)"

inhibition >= 20% for Fc1ccc(-c2nn3ccccc3c2-c2ccncc2)cc1 ?
no (0)

inhibition >= 20% for CC(=O)NCc1cccc(C#Cc2cncnc2Nc2ccc(OCc3cccc(F)c3)c(Cl)c2)c1 ?
no (0)

inhibition >= 20% for O=C(O[C@H]1CN[C@H](C#Cc2cc3ncnc(Nc4ccc(Cc5ccccc5)cc4)c3s2)C1)N1CCOCC1 ?
no (0)

inhibition >= 20% for CS(=O)(=O)CCNCc1coc(-c2ccc3ncnc(Nc4ccc(OCc5ccccc5)cc4)c3c2)c1 ?
no (0)

inhibition >= 20% for Fc1ccc(-c2nn3ncccc3c2-c2ccnc(Nc3ccc4c(c3)OCCO4)n2)cc1 ?
yes (1)

inhibition >= 20% for CCCN1CCC(c2ccc(Nc3nc(Nc4cc(F)ccc4C(N)=O)c4cc[nH]c4n3)c(OC)c2)CC1 ?
no (0)

inhibition >= 20% for CNC(=O)c1cncc(/C=C/c2ccccc2Cl)c1 ?
no (0)

inhibition >= 20% for c1cc(-c2cnn3nc(N4CCOCC4)ccc23)nc(NC2CC2)n1 ?
no (0)

inhibition >= 20% for Nc1ncc(-c2cccc(S(N)(=O)=O)c2)c2scc(-c3ccc(F)c(Cl)c3)c12 ?
no (0)
